- System: C33A
- EXPERIMENT SUMMARY: Primary qHTS to identify gynecologic anti-cancer compounds using libraries of approved drugs and bioactive compounds (AID 1345084); also: nearly all actives have a fitted effect of over 55% in size
- RUN PARAMETERS: Gynecologic cancer cell panel viability, ATPlite luminescence, 48 h; series mostly up to 57.5 µM
- Excerpt: National Center for Advancing Translational Sciences [NCATS] Assay Overview: Chemotherapeutic drug responses vary from cancer to cancer and from patient to patient. […] ATPlite is a luminescence based assay reliant on the conversion of a luciferase substrate to light in the presence of ATP. As a cytotoxic compound will suppress growth and decrease the number of cells, the concentration of ATP will decrease, and less light signal will be detected in the well. […]
Results filed as inconclusive are left out. The source made the active and inactive calls. Calls follow the shape of the dose curve; as a rule, active = well fitted cell-killing curve with a large enough effect; inconclusive = small, poorly fitted or top-dose-only effect, or effect the other way; inactive = flat fitted curve, though single readings scatter.
// allowed return values: active, inactive

Recorded results for 3 compounds are shown here.
1. O=C(NCc1ccc(OC(F)(F)F)cc1)C1c2c(F)cccc2C(=O)N1CCc1ccccn1 (stereo not drawn) = inactive
2. CN(C)CCn1cc(-c2ccc(F)cc2)c(-n2cccc2)n1 = inactive
3. CCCC1(CCC)CCC2(CCN(CCCN(CC)CC)C2)CC1 = active

Request: Lab log entry: C#CC(=O)N(c1ccc(OC)cc1OC)C(C(=O)NCC(=O)OCC)c1cccs1 (stereo not drawn) — outcome as called in the assay?
Response: active

====

- System: Tov-21-G
- EXPERIMENT SUMMARY: Primary qHTS to identify gynecologic anti-cancer compounds using libraries of approved drugs and bioactive compounds (AID 1345084); also: nearly all actives have a fitted effect of over 55% in size
- RUN PARAMETERS: Gynecologic cancer cell panel viability, ATPlite luminescence, 48 h; series mostly up to 57.5 µM
Records with an inconclusive call do not appear. Calls of active or inactive are those of the source. Calls come from the whole dose curve; as a rule, active = well fitted cell-killing curve with a large enough effect; inconclusive = small, poorly fitted or top-dose-only effect, or effect the other way; inactive = flat fitted curve, though single readings scatter.
// allowed return values: active, inactive

1) C#CCOc1ccc2c(c1)c(-c1ccc(C(C)C)cc1)nc(=O)n2C(C)C = inactive
2) CCNC1(C(N)=O)CN(c2nc(C)nc3c(-c4ccc(Cl)cc4)c(-c4ccccc4Cl)nn23)C1 = inactive
3) N#Cc1ccc(-c2ccc(S(=O)(=O)Nc3cccc(N)n3)cc2)cc1 = inactive

Request: Lab log entry: CC(C)c1c(O)ccc2c1CC[C@H]1C(C)(C)CCC[C@]21C — outcome as called in the assay?
Response: inactive

Request: Lab log entry: O=C(Nc1nnc(-c2ccc3c(c2)OCCO3)o1)C1CCCCC1 — outcome as called in the assay?
Response: inactive

====

- SYSTEM TESTED: Cytochrome P450 2C9 (Homo sapiens)
- EXPERIMENT SUMMARY: Cytochrome P450 family 2 subfamily C member 9 (CYP2C9) small molecule antagonists: luciferase biochemical (cell-free) qHTS assay (AID 1645842); also: nearly all actives have a fitted effect of over 55% in size
- RUN PARAMETERS: P450-Glo CYP2C9 enzyme assay, luciferin luminescence; series mostly up to 57.4 µM
- Source text: National Center for Advancing Translational Sciences [NCATS] Assay Overview: Cytochrome P450 (CYP) enzymes are membrane-bound hemeproteins that play a key role in metabolism of drugs and xenobiotics. Assaying the effect of chemicals on CYP isozymes is useful to minimize the adverse drug reactions and toxicities in drug development process. […] The luciferin products formed are detected with a luciferin detection reagent, and the amount of light produced is proportional to CYP activity. […]
Results filed as inconclusive are left out. Activity calls are given as the source filed them. Calls follow the shape of the dose curve; as a rule, active = well fitted inhibition curve with a large enough effect in the repeat runs; inconclusive = weak or mixed curves; inactive = no such curve, though single readings can be large or run the other way.
// allowed return values: active, inactive

Recorded results for 5 molecules are shown here.
1) CNCCCC1(c2ccccc2)OC(C)(C)c2ccccc21 (centres undefined) = inactive
2) CCCCNc1ncc(C(=O)NCc2ccc(-n3ccnc3)cc2)c(NC2CCC(O)CC2)n1 (centres undefined) = active
3) C=CS(=O)(=O)O = inactive
4) O=C(O)c1ccc(S(=O)(=O)N(Cc2ccc(OC(F)(F)F)cc2)c2ncc(C(F)(F)F)cc2Cl)cc1 = active
5) CC(C)S(=O)(=O)NC[C@H](C)c1ccc(-c2ccc(CCNS(C)(=O)=O)cc2)cc1 = active

Request: Lab log entry: Cc1nc(N2CCN(C(=O)c3ccco3)CC2)c2c3c(sc2n1)CCCC3 — outcome as called in the assay?
Response: active

Request: Lab log entry: CCOc1cn(-c2ccc(F)cc2C)nc1C(=O)Nc1ccc(Oc2ccnc3cc(OC)c(OC)cc23)c(F)c1 — outcome as called in the assay?
Response: inactive

Request: Lab log entry: O=C1COc2nccc(-c3ccccc3F)c2CN1Cc1cc(C(F)(F)F)cc(C(F)(F)F)c1 — outcome as called in the assay?
Response: active

Request: Lab log entry: CCC1C(=O)N(C)c2cnc(Nc3ccc(C(=O)NC4CCN(C)CC4)cc3OC)nc2N1C1CCCC1 (centres undefined) — outcome as called in the assay?
Response: active

Request: Lab log entry: CC(=O)N1CCN(CCOc2ccc(C3CCN(C4=Nn5c(nnc5C(F)(F)F)CC4)CC3)cc2)CC1 — outcome as called in the assay?
Response: active

Request: Lab log entry: Cc1cc(N2CCN(C(=O)Oc3ccc(-c4ccccc4)cn3)CC2)c2ccccc2n1 — outcome as called in the assay?
Response: active
